Answer each item with its documented mean cell size.
# System: Saccharomyces cerevisiae BY4741 SeMeCo community
# Protocol Notes: mean cell size (pixel area) (pixels); higher = larger cells
# Assay Conditions: 10 µM; 24 h; SM minimal medium
Where a name gives a salt, the structure may show the parent alone.
// no unit, no text: just the number

Briefly, mean cell size measured for Oc1ccc(Cl)c2cccnc12 : 14.3

Briefly, mean cell size measured for CCCSc1ccc2[nH]c(NC(=O)OC)nc2c1 : 12.6

Briefly, mean cell size measured for CCCc1cc(C(N)=S)ccn1 [Protionamide] : 12.4

Briefly, mean cell size measured for CCCc1nn(C)c2c(=O)[nH]c(-c3cc(S(=O)(=O)N4CCN(C)CC4)ccc3OCC)nc12 [Sildenafil Citrate] : 12.4

Briefly, mean cell size measured for C[C@@H](NCCCc1cccc(C(F)(F)F)c1)c1cccc2ccccc12 [Cinacalcet HCl] : 12.2

Briefly, mean cell size measured for COCCCOc1ccnc(C[S+]([O-])c2nc3ccccc3[nH]2)c1C (configuration not stated) [Rebeprazole sodium] : 12.5

Briefly, mean cell size measured for CCCCOC(=O)c1ccc(O)cc1 : 12.3
